# MEASURED TARGET: Histone deacetylase (Homo sapiens) (UniProt Q13547+O15379+Q9UBN7+Q92769+Q9UQL6+Q8WUI4+Q9BY41+Q96DB2+P56524+Q9UKV0+Q969S8)
# ASSAY REMARKS: Inhibition of HDAC in human U937 cells assessed as histone H3 acetylation at 5 uM after 24 hrs by Western blot
# Assay type: cell-based
# MEASUREMENT SETUP: U-937
The source made the active and inactive calls. The rule behind the calls is not given here.
TEST READOUT: inhibition

COMPOUND STRUCTURE | TEST READOUT | RESULT
Cc1ccc(OCCCN(Cc2ccc(C(=O)NO)cc2)c2ncc(-c3ccc(C)cc3)s2)cc1 | inhibition | Active
Cc1ccc(-c2cnc(N(CCOc3ccccc3)Cc3ccc(C(=O)NO)cc3)s2)cc1 | inhibition | Active
Cc1ccc(-c2cnc(N(CCCCOc3ccccc3)Cc3ccc(C(=O)NO)cc3)s2)cc1 | inhibition | Active
Cc1ccc(OCCN(Cc2ccc(C(=O)NO)cc2)c2ncc(-c3ccc(C)cc3)s2)cc1 | inhibition | Active
Cc1ccc(-c2cnc(N(CCCOc3ccccc3)Cc3ccc(C(=O)NO)cc3)s2)cc1 | inhibition | Active
